Where do the numbers come from? From paper PMC9229919.

# Procedure text: Reverse-phase thin-layer chromatographic lipophilicity (RF, RM0)
# Assay type: physicochemical
# Reported conditions: RP-18 silica; V = 50%Dioxane/45%H2O/5%HCl
For each entry below, report its RF, Dioxane/Water/Hydrochloric acid (conc.), mobile phase V value.
No unit in the answer, please; the number alone is enough.

Look up RF, Dioxane/Water/Hydrochloric acid (conc.), mobile phase V for this compound: Clc1ccc2c(NCCCN3CCN(CCCNCCC45CC6CC(CC(C6)C4)C5)CC3)ccnc2c1 [Compound 23]
0.51

Then this compound: Clc1ccc2c(NCCCCNCC34CC5CC(CC(C5)C3)C4)ccnc2c1 [Compound 3]
0.55

Also check Clc1ccc2c(NCCCCCCNCC34CC5CC(CC(C5)C3)C4)ccnc2c1 [Compound 4]
0.52

Similarly, Clc1ccc2c(N3CCN(CCC45CC6CC(CC(C6)C4)C5)CC3)ccnc2c1 [Compound 21] ?
0.52

Try CC(CCNCCC12CC3CC(CC(C3)C1)C2)Nc1ccnc2ccccc12 (centres unmarked) [Compound 16] next.
0.5
